These measurements were taken from patent CN109734806A.

Biological target: T1, 人TIGIT (膜表达人TIGIT稳转细胞株DG44-TIGIT) (human, UniProt Q495A1 22-244)
T1 construct: whole, on cells; also called 细胞表面的TIGIT蛋白; huTIGIT
T1 sequence (looked up): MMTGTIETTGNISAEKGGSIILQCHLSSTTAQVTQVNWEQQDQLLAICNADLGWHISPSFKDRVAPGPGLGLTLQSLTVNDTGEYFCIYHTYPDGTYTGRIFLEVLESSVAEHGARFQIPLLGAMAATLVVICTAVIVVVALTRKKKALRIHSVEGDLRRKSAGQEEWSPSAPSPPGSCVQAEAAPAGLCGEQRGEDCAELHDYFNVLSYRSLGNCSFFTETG
Assay: FACS binding to DG44-TIGIT cells
In this section we review reported EC50 values for a set of binders.
A number alone suffices; assume µg/mL.

Sample records with EC50:
binder="TBB8 (antibody, V domains shown, also called 全人源抗人TIGIT单抗TBB8) VH: DVQLQESGPGLVKPSETLSLTCTVSGYSISTGYAWSWIRQPPGKGLEWIGSISAFGGNTYYNPSLKSRVTISVDTSKNQFSLKLSSVTAADTSVYYCARTARWIAFDYWGQGTLVTVSS VL: DIVLTQSPATLSLSPGERATLSCRASQDIGVSLNWYQQKPGQAPRLLIYWTSFRATGVPTRFSGSGSGTDFTLTISSLEPEDFAVYYCQQANGVPLFTFGQGTKLEIKR" measured_metric=EC50 units=µg/mL endpoint_value=0.096
binder="3TB3 (antibody, V domains shown, Parent of D1Y1A; also called 全人源抗人TIGIT单抗3TB3; 野生型3TB3) VH: DVQLQESGPGLVKPSETLSLTCTVSGGSISGGYSWSWIRQPPGKGLEWIGSIVPHRSATSYNPSLKSRVTISVDTSKNQFSLKLSSVTAADTSVYYCARSYGGNRLDYWGQGTLVTVSS VL: DIVLTQSPATLSLSPGERATLSCRASQGVGIRLSWYQQKPGQAPRLLIYYTAYRATGVPTRFSGSGSGTDFTLTISSLEPEDFAVYYCLQTFGDPYTFGQGTKLEIKR" measured_metric=EC50 units=µg/mL endpoint_value=0.0589

Attention now turns to another entry.
Reported EC50, binder TDC8 (antibody, V domains shown, also called 全人源抗人TIGIT单抗TDC8) VH: DVQLQESGPGLVKPSETLSLTCTVSGGSISSKGFTWSWIRQPPGKGLEWIGQISPLDSSTSYNPSLKSRVTISVDTSKNQFSLKLSSVTAADTSVYYCARGIWTYLYGFDYWGQGTLVTVSS VL: DIVLTQSPATLSLSPGERATLSCRASQSIHAGYLAWYQQKPGQAPRLLIYWTNLRATGVPTRFSGSGSGTDFTLTISSLEPEDFAVYYCLQLMRYPPTFGQGTKLEIKR : ____
0.0585
